Just for reference, ChEMBL document CHEMBL3217730 is where these values come from.

# system name: Neuraminidase (Influenza A virus, UniProt B4URF0)
# Sequence (B4URF0 whole entry): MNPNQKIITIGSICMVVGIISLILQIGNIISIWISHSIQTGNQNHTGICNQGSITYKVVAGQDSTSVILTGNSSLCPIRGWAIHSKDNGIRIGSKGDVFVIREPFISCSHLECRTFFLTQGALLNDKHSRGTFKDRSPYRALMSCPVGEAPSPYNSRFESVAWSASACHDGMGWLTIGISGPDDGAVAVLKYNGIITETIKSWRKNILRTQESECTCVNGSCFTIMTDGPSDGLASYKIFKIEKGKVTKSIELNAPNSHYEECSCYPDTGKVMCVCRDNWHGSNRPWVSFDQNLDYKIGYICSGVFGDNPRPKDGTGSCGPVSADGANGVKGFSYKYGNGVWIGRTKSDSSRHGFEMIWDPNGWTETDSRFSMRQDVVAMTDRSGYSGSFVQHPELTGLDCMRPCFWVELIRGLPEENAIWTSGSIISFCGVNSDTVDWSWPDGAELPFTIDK
# test: Inhibition of Influenza virus neuraminidase A
# Set-up: species or system unidentified influenza virus
# details: read-out: pIC50 (converted)
Dear colleague, classification is by IC50, with ranges listed here: low (below 0.003 µM), medium (0.003 µM to below 0.2 µM), high (0.2 µM or more)

>>> assigned_label("CCN(CC)C(=O)[C@@H](NC(C)=O)[C@H]1CC(C(=O)O)C[C@@H]1NC(=N)N (some centres undefined)")
"medium"
>>> assigned_label("CCCCCCO[C@@H]1C=C(C(=O)O)C[C@H](N)[C@H]1NC(C)=O")
"medium"
>>> assigned_label("C=CC[C@H](CC)O[C@@H]1C=C(C(=O)O)C[C@H](N)[C@H]1NC(C)=O")
"low"
>>> assigned_label("CC(=O)N[C@@H]1[C@@H](N)CC(C(=O)O)=C[C@H]1OC1CCCCC1")
"medium"
>>> assigned_label("CC[C@@H](CCc1ccccc1)O[C@@H]1C=C(C(=O)O)C[C@H](N)[C@H]1NC(C)=O")
"low"
>>> assigned_label("CC[C@@H](Cc1ccccc1)O[C@@H]1C=C(C(=O)O)C[C@H](N)[C@H]1NC(C)=O")
"high"
>>> assigned_label("CCCCO[C@@H]1C=C(C(=O)O)C[C@H](N)[C@H]1NC(C)=O")
"high"

###

# system name: UniProt B4URF0
# test: Inhibition of Influenza virus neuraminidase A
# Set-up: species or system unidentified influenza virus
# details: read-out: pIC50 (converted)
Measured IC50, listed per entry for reference.
value kind: IC50 (nM)

>>> reported_result("CC[C@@H](CC1CCCCC1)O[C@@H]1C=C(C(=O)O)C[C@H](N)[C@H]1NC(C)=O")
16
>>> reported_result("CCN(C(=O)N1C[C@@H](N)[C@@H](C(=O)O)C1)C(C)C")
1060
>>> reported_result("CCCO[C@@H]1C=C(C(=O)O)C[C@H](N=C(N)N)[C@H]1NC(C)=O")
2
>>> reported_result("CCCCCCCO[C@@H]1C=C(C(=O)O)C[C@H](N)[C@H]1NC(C)=O")
270
>>> reported_result("CCCCCCCCO[C@@H]1C=C(C(=O)O)C[C@H](N)[C@H]1NC(C)=O")
180
>>> reported_result("CC[C@H](CCc1ccccc1)O[C@@H]1C=C(C(=O)O)C[C@H](N)[C@H]1NC(C)=O")
12
>>> reported_result("CCCCCCCCCCO[C@@H]1C=C(C(=O)O)C[C@H](N)[C@H]1NC(C)=O")
601
>>> reported_result("CCCO[C@@H]1C=C(C(=O)O)C[C@H](N)[C@H]1NC(C)=O")
180
>>> reported_result("CC(=O)N[C@@H]1[C@@H](N)CC(C(=O)O)=C[C@H]1OCCCc1ccc(-c2ccccc2)cc1")
90.2
>>> reported_result("CC(=O)N[C@@H]1[C@@H](N)CC(C(=O)O)=C[C@H]1Oc1ccccc1")
531

###

# system name: Neuraminidase (Influenza A virus)
# test: Inhibition of Influenza virus neuraminidase A
# Design: species or system unidentified influenza virus
# details: read-out: pIC50 (converted)
Measured IC50, listed per entry for reference.
value kind: IC50

>>> reported_result("CCCCCO[C@@H]1C=C(C(=O)O)C[C@H](N)[C@H]1NC(C)=O")
"200 nM"
>>> reported_result("CCCCCCC[C@H](CC)O[C@@H]1C=C(C(=O)O)C[C@H](N)[C@H]1NC(C)=O")
"1 nM"
>>> reported_result("CC[C@@H](C)O[C@@H]1C=C(C(=O)O)C[C@H](NC(=N)N)[C@H]1NC(C)=O")
"0.5 nM"
>>> reported_result("CCCCCCCCCO[C@@H]1C=C(C(=O)O)C[C@H](N)[C@H]1NC(C)=O")
"210 nM"
>>> reported_result("CC[C@H](C)O[C@@H]1C=C(C(=O)O)C[C@H](NC(=N)N)[C@H]1NC(C)=O")
"0.5 nM"
>>> reported_result("CCO[C@@H]1C=C(C(=O)O)C[C@H](N)[C@H]1NC(C)=O")
"2000 nM"
>>> reported_result("CC(=O)N[C@H]1[C@H](O)C=C(C(=O)O)C[C@@H]1N=C(N)N")
"100 nM"
>>> reported_result("CO[C@@H]1C=C(C(=O)O)C[C@H](N)[C@H]1NC(C)=O")
"3710 nM"
>>> reported_result("CC[C@@H](CCC1CCCCC1)O[C@@H]1C=C(C(=O)O)C[C@H](N)[C@H]1NC(C)=O")
"1 nM"
>>> reported_result("CC[C@H](C)O[C@@H]1C=C(C(=O)O)C[C@H](N)[C@H]1NC(C)=O")
"9.02 nM"
